# Tested on: metrazol-induced convulsions
# PROTOCOL DESCRIPTION: Suppression of Metrazol-Induced Convulsions in Adult Male Mice
# Type: in vivo, mouse (male CD1)
# ASSAY SETUP: 0.5 h; mouse, ip; block of clonic convulsions, CD90 dose of metrazol sc, 30 min observation
PROPERTY LABEL: ED50

Entry O=C1CCN2C(=C1C(=O)Nc1ccccc1F)N(Cc1ccsc1)c1cc(F)ccc12 [CP# 19] , metrazol-induced convulsions data, ED50 value: 0.7 mg/kg

Entry O=C1CCN2C(=C1C(=O)Nc1c(F)cccc1F)N(Cc1ccccn1)c1cc(F)ccc12 [CP# 24] , metrazol-induced convulsions data, ED50 value: 3 mg/kg

Entry O=C1CCN2C(=C1C(=O)Nc1ccccc1F)N(Cc1c[nH]cn1)c1cc(F)ccc12 [CP# 12] , metrazol-induced convulsions data, ED50 value: 30 mg/kg

Entry O=C1CCN2C(=C1C(=O)Nc1ccccc1F)N(CCc1ccccn1)c1cc(F)ccc12 [CP# 15] , metrazol-induced convulsions data, ED50 value: 0.3 mg/kg

Entry O=C1CCN2C(=C1C(=O)Nc1c(F)cccc1F)N(Cc1ccccn1)c1ccccc12 [CP# 29] , metrazol-induced convulsions data, ED50 value: 3 mg/kg

Entry O=C1CCN2C(=C1C(=O)Nc1c(F)cccc1F)N(CCc1cccs1)c1cc(F)ccc12 [CP# 18] , metrazol-induced convulsions data, ED50 value: 10 mg/kg

Entry O=C1CCN2C(=C1C(=O)Nc1ccccc1F)N(Cc1cccs1)c1cc(F)ccc12 [CP# 21] , metrazol-induced convulsions data, ED50 value: < 1 mg/kg

Entry O=C1CCN2C(=C1C(=O)Nc1ccccc1F)N(Cc1cc[n+]([O-])cc1)c1cc(F)ccc12 [CP# 14] , metrazol-induced convulsions data, ED50 value: 10 mg/kg

Entry O=C1CCN2C(=C1C(=O)Nc1c(F)cccc1F)N(Cc1cccs1)c1cc(F)ccc12 [CP# 26] , metrazol-induced convulsions data, ED50 value: < 10 mg/kg

Entry O=C1CCN2C(=C1C(=O)Nc1c(F)cccc1F)N(Cc1ccsc1)c1cc(F)ccc12 [CP# 23] , metrazol-induced convulsions data, ED50 value: > 10 mg/kg

Entry O=C1CCN2C(=C1C(=O)Nc1ccccc1F)N(Cc1cccnc1)c1cc(F)ccc12 [CP# 17] , metrazol-induced convulsions data, ED50 value: 1 mg/kg

Entry O=C1CCN2C(=C1C(=O)Nc1c(F)cccc1F)N(CCc1ccsc1)c1cc(F)ccc12 [CP# 25] , metrazol-induced convulsions data, ED50 value: 3 mg/kg

Entry O=C1CCN2C(=C1C(=O)Nc1ccccc1F)N(Cc1cccnc1)c1ccccc12 [CP# 30] , metrazol-induced convulsions data, ED50 value: 10 mg/kg

Entry O=C1CCN2C(=C1C(=O)Nc1ccccc1F)N(Cc1ccco1)c1cc(F)ccc12 [CP# 11] , metrazol-induced convulsions data, ED50 value: < 10 mg/kg

Entry O=C1CCN2C(=C1C(=O)Nc1c(F)cccc1F)N(Cc1ccco1)c1cc(F)ccc12 [CP# 27] , metrazol-induced convulsions data, ED50 value: 1 mg/kg

Entry O=C1CCN2C(=C1C(=O)Nc1ccccc1F)N(CCc1ccsc1)c1cc(F)ccc12 [CP# 20] , metrazol-induced convulsions data, ED50 value: 0.1 mg/kg

Entry O=C1CCN2C(=C1C(=O)Nc1ccccc1F)N(Cc1ccccn1)c1cc(F)ccc12 [CP# 22] , metrazol-induced convulsions data, ED50 value: < 1 mg/kg

Entry O=C1CCN2C(=C1C(=O)Nc1ccccc1F)N(Cc1ccncc1)c1cc(F)ccc12 [CP# 16] , metrazol-induced convulsions data, ED50 value: 3 mg/kg

Entry O=C1CCN2C(=C1C(=O)Nc1ccccc1F)N(Cc1ccc[n+]([O-])c1)c1cc(F)ccc12 [CP# 13] , metrazol-induced convulsions data, ED50 value: 3 mg/kg

Entry O=C1CCN2C(=C1C(=O)Nc1ccccc1F)N(Cc1ccccn1)c1ccccc12 [CP# 28] , metrazol-induced convulsions data, ED50 value: 0.5 mg/kg
